Reference source for all entries: patent US20210138025A1

Test system: S. aureus (MRSA SAP0017)
Assay type: cell-based, Staphylococcus aureus
Settings: SPOT synthesized peptide, ~12.5 μM, clinical MRSA strain, crystal violet assay
Non-standard residues stand in square brackets, D forms with d. No end group written: not given here. Orn = NCCC[C@H](N)C(=O)O
observed property: % Residual MRSA biofilm growth compared to untreated control
Record the result as a number with its unit.

In: For VRLIVAVOrnIWRR (VRLIVAV[Orn]IWRR-NH2; N-terminus assumed; SMILES CC[C@H](C)[C@H](NC(=O)[C@H](CCCN)NC(=O)[C@@H](NC(=O)[C@H](C)NC(=O)[C@@H](NC(=O)[C@@H](NC(=O)[C@H](CC(C)C)NC(=O)[C@H](CCCNC(=N)N)NC(=O)[C@@H](N)C(C)C)[C@@H](C)CC)C(C)C)C(C)C)C(=O)N[C@@H](Cc1c[nH]c2ccccc12)C(=O)N[C@@H](CCCNC(=N)N)C(=O)N[C@@H](CCCNC(=N)N)C(N)=O) [Peptide 1018-k32] , write its % Residual MRSA biofilm growth compared to untreated control.
Out: 46%

---

System: E. coli (Ec)
Type: cell-based
Details: Ec
No end group written: not given here.
Here the recorded MIC Ec is given for each entry.

In: For LWQLWLKLKLKG-NH2 [Peptide 3013, LWQLWLKLKLKG] , write its MIC Ec.
Out: >64 µg/mL

In: For AVAKWALKLWKQ-NH2 [Peptide 3009, AVAKWALKLWKQ] , write its MIC Ec.
Out: >64 µg/mL

In: For LAGLIVKWAGVR-NH2 [Peptide 3017, LAGLIVKWAGVR] , write its MIC Ec.
Out: >64 µg/mL

In: For QLARLARVVWGL-NH2 [Peptide 3010, QLARLARVVWGL] , write its MIC Ec.
Out: >64 µg/mL

In: For AVKWLGWILAKK-NH2 [Peptide 3016, AVKWLGWILAKK] , write its MIC Ec.
Out: 64 µg/mL

Now for another entry.
In: For KIVIRIILQVIK-NH2 [Peptide 3015, KIVIRIILQVIK] , write its MIC Ec.
Out: >64 µg/mL

---

System: S. aureus (MRSA SAP0017)
Type: cell-based, Staphylococcus aureus
Settings: SPOT synthesized control peptides, determined as in Table 5; Table 7
Non-standard residues stand in square brackets, D forms with d. No end group written: not given here. Agb = N=C(N)NCC[C@H](N)C(=O)O; Agp = N=C(N)NC[C@H](N)C(=O)O; Orn = NCCC[C@H](N)C(=O)O; Dab = NCC[C@H](N)C(=O)O; Dap = NC[C@H](N)C(=O)O
observed property: % Biofilm Inhibition (%)
Write the answer as a number in %, unit excluded.

Here are 4 substances together with their reported answers.
In: State % Biofilm Inhibition (S. aureus (MRSA SAP0017)) of C78 (VRLIVAVRIW[Agb]R; not fully specified (C-terminus); printed as VRLIVAVRIWGbutR) [Peptide C78] .
Out: 101

In: State % Biofilm Inhibition (S. aureus (MRSA SAP0017)) of C37 (QQKVIRLLWKAK) [Peptide C37] .
Out: 102

In: State % Biofilm Inhibition (S. aureus (MRSA SAP0017)) of C67 (VRLIVAVRIW[Agp]R-NH2; N-terminus assumed; SMILES CC[C@H](C)[C@H](NC(=O)[C@H](CCCNC(=N)N)NC(=O)[C@@H](NC(=O)[C@H](C)NC(=O)[C@@H](NC(=O)[C@@H](NC(=O)[C@H](CC(C)C)NC(=O)[C@H](CCCNC(=N)N)NC(=O)[C@@H](N)C(C)C)[C@@H](C)CC)C(C)C)C(C)C)C(=O)N[C@@H](Cc1c[nH]c2ccccc12)C(=O)N[C@@H](CNC(=N)N)C(=O)N[C@@H](CCCNC(=N)N)C(N)=O) [Peptide C67] .
Out: 105

In: State % Biofilm Inhibition (S. aureus (MRSA SAP0017)) of C102 (VRLIVAVR[Dab]WRR-NH2; N-terminus assumed; SMILES CC[C@H](C)[C@H](NC(=O)[C@H](CC(C)C)NC(=O)[C@H](CCCNC(=N)N)NC(=O)[C@@H](N)C(C)C)C(=O)N[C@H](C(=O)N[C@@H](C)C(=O)N[C@H](C(=O)N[C@@H](CCCNC(=N)N)C(=O)N[C@@H](CCN)C(=O)N[C@@H](Cc1c[nH]c2ccccc12)C(=O)N[C@@H](CCCNC(=N)N)C(=O)N[C@@H](CCCNC(=N)N)C(N)=O)C(C)C)C(C)C) [Peptide C102] .
Out: 104

---
In: State % Biofilm Inhibition (S. aureus (MRSA SAP0017)) of C71 (VRL[Agb]VAVRIWRR; not fully specified (C-terminus); printed as VRLGbutVAVRIWRR) [Peptide C71] .
Out: 103

In: State % Biofilm Inhibition (S. aureus (MRSA SAP0017)) of C105 (VRLIVAVRIWR[Dab]) [Peptide C105] .
Out: 96

In: State % Biofilm Inhibition (S. aureus (MRSA SAP0017)) of C55 (VAKVKKARWRLR) [Peptide C55] .
Out: 102

In: State % Biofilm Inhibition (S. aureus (MRSA SAP0017)) of C93 (VRLIVAV[Dap]IWRR) [Peptide C93] .
Out: 71

In: State % Biofilm Inhibition (S. aureus (MRSA SAP0017)) of C25 (IGQVVLVKIKIA) [Peptide C25] .
Out: 98

In: State % Biofilm Inhibition (S. aureus (MRSA SAP0017)) of C47 (KVIQWIIVRRVL) [Peptide C47] .
Out: 102

In: State % Biofilm Inhibition (S. aureus (MRSA SAP0017)) of C10 (QLRVAWKRAWWA) [Peptide C10] .
Out: 87

In: State % Biofilm Inhibition (S. aureus (MRSA SAP0017)) of C68 (VRLIVAVRIWR[Agp]) [Peptide C68] .
Out: 106

In: State % Biofilm Inhibition (S. aureus (MRSA SAP0017)) of C33 (KIWLLKLRQRQK) [Peptide C33] .
Out: 102

In: State % Biofilm Inhibition (S. aureus (MRSA SAP0017)) of C111 (VRLIVAVRI[Orn]RR) [Peptide C111] .
Out: 92

In: State % Biofilm Inhibition (S. aureus (MRSA SAP0017)) of C100 (VRLIVA[Dab]RIWRR-NH2; N-terminus assumed; SMILES CC[C@H](C)[C@H](NC(=O)[C@H](CCCNC(=N)N)NC(=O)[C@H](CCN)NC(=O)[C@H](C)NC(=O)[C@@H](NC(=O)[C@@H](NC(=O)[C@H](CC(C)C)NC(=O)[C@H](CCCNC(=N)N)NC(=O)[C@@H](N)C(C)C)[C@@H](C)CC)C(C)C)C(=O)N[C@@H](Cc1c[nH]c2ccccc12)C(=O)N[C@@H](CCCNC(=N)N)C(=O)N[C@@H](CCCNC(=N)N)C(N)=O) [Peptide C100] .
Out: 104

In: State % Biofilm Inhibition (S. aureus (MRSA SAP0017)) of C14 (VKAKRWKWAQLA) [Peptide C14] .
Out: 104

In: State % Biofilm Inhibition (S. aureus (MRSA SAP0017)) of C48 (KVIKIVLVRVVK) [Peptide C48] .
Out: 99

In: State % Biofilm Inhibition (S. aureus (MRSA SAP0017)) of C66 (VRLIVAVRI[Agp]RR) [Peptide C66] .
Out: 107

In: State % Biofilm Inhibition (S. aureus (MRSA SAP0017)) of C101 (VRLIVAV[Dab]IWRR-NH2; N-terminus assumed; SMILES CC[C@H](C)[C@H](NC(=O)[C@H](CCN)NC(=O)[C@@H](NC(=O)[C@H](C)NC(=O)[C@@H](NC(=O)[C@@H](NC(=O)[C@H](CC(C)C)NC(=O)[C@H](CCCNC(=N)N)NC(=O)[C@@H](N)C(C)C)[C@@H](C)CC)C(C)C)C(C)C)C(=O)N[C@@H](Cc1c[nH]c2ccccc12)C(=O)N[C@@H](CCCNC(=N)N)C(=O)N[C@@H](CCCNC(=N)N)C(N)=O) [Peptide C101] .
Out: 103

In: State % Biofilm Inhibition (S. aureus (MRSA SAP0017)) of C62 (VRLIV[Agp]VRIWRR) [Peptide C62] .
Out: 106

In: State % Biofilm Inhibition (S. aureus (MRSA SAP0017)) of C13 (VARAVQKRWRKK) [Peptide C13] .
Out: 105

In: State % Biofilm Inhibition (S. aureus (MRSA SAP0017)) of C26 (VWLAQKIGKWIW) [Peptide C26] .
Out: 100
